System: UO-31 renal
Experiment: NCI-60 one-dose screen, 48 h (100 = growth as untreated, 0 = no growth, -100 = all killed)
Conditions: 10 µM
Compounds without any hit were thinned out: in the full panel of roughly 83,000, 20% have a hit.
experimental.readout: growth (%)
Express the result in % but write the number alone.

Qu. Return growth for the following compound: O=[N+]([O-])c1ccc(Cl)c(S(=O)(=O)O)c1
Ans. 89.3

Qu. Return growth for the following compound: CCOc1ccc2[nH]c(=S)sc2c1
Ans. 88

Qu. Return growth for the following compound: COC(=O)c1ccccc1N(C)C
Ans. 87.5

Qu. Return growth for the following compound: O=C(/C(=N/O)c1ccccc1)c1ccccc1
Ans. 87.9

Qu. Return growth for the following compound: CC1CCCCN1C(=S)Nc1ccc(S(=O)(=O)N2CCCCC2)cc1 (stereo not given)
Ans. 89.4

---

System: HCC-2998 colon
Test: NCI-60 one-dose screen, 48 h (100 = growth as untreated, 0 = no growth, -100 = all killed)
Details: 10 µM
Compounds without any hit were thinned out: in the full panel of roughly 83,000, 20% have a hit. The source made the active and inactive calls. The calls were made as follows: active = growth percent below 10; inactive = the rest.
Exercise: for every item that follows, state its recorded growth.

Qu. Return growth for the following compound: CCc1ccc(/C(C#N)=C/C=C/c2ccccc2)cc1
Ans. 60.8% (inactive)

Qu. Return growth for the following compound: CC(C)CCOC(=O)c1ccccc1
Ans. 110% (inactive)

Qu. Return growth for the following compound: C/C(=C\c1ccc([N+](=O)[O-])cc1)C(=O)O
Ans. 101% (inactive)

Qu. Return growth for the following compound: O=C(Cc1nc2ccc([N+](=O)[O-])cc2nc1CC(=O)c1ccccc1)c1ccccc1
Ans. 89% (inactive)

Qu. Return growth for the following compound: NC(=O)NC(=O)c1ccc(Cl)cc1
Ans. 111% (inactive)

Qu. Return growth for the following compound: O=[N+]([O-])c1ccc(Sc2ccncn2)c([N+](=O)[O-])c1
Ans. 90.5% (inactive)

Qu. Return growth for the following compound: COc1cc2c(cc1OC)[C@H](C(=O)O)[C@@H](c1ccc(OC(C)C)c(OC)c1)N(C)C2=O
Ans. 108% (inactive)

Qu. Return growth for the following compound: CN(C)c1nc2c([nH]1)c(=O)n(C)c(=O)n2C
Ans. 89.8% (inactive)

Qu. Return growth for the following compound: COc1cc(C(=O)NC(=S)Nc2ccc3ccccc3c2)cc(OC)c1OC
Ans. 99.5% (inactive)

Qu. Return growth for the following compound: O=C1NC(=O)C2C(=O)NC(=O)C1C21CCc2ccccc21 (stereo not given)
Ans. 115% (inactive)

Qu. Return growth for the following compound: COC(=O)/C=C\C(=O)OC
Ans. 103% (inactive)

Qu. Return growth for the following compound: Clc1ccc(-c2n[nH]c3c2Cc2ccccc2-3)cc1Cl
Ans. 92.2% (inactive)

Qu. Return growth for the following compound: CCOC(=O)c1[nH]c(C)c(C(=O)O)c1C
Ans. 107% (inactive)

Qu. Return growth for the following compound: O=C(NCCNC(=O)c1ccc(Cl)cc1Cl)c1ccc(Cl)cc1Cl
Ans. 100% (inactive)

Qu. Return growth for the following compound: O=c1[nH][nH]c(=O)c2cc([N+](=O)[O-])ccc12
Ans. 99.6% (inactive)

Qu. Return growth for the following compound: CN(C)c1ccc2oc(=O)c3ccccc3c2c1
Ans. 88.5% (inactive)

Qu. Return growth for the following compound: COc1cc(/C=N\Nc2ccccc2)ccc1OC(=O)c1ccccc1
Ans. 74.9% (inactive)

Qu. Return growth for the following compound: COc1nc(N)nc2c1ncn2C1OC(CO)CC1O (stereo not given)
Ans. 105% (inactive)

Qu. Return growth for the following compound: Cc1ccncc1C(N)=O
Ans. 124% (inactive)

Qu. Return growth for the following compound: COc1ccccc1N=Nc1c(O)ccc2cc(S(=O)(=O)O)ccc12
Ans. 96.3% (inactive)
